Target: T1, human GIP receptor (human, UniProt P48546 22-466)
T1 sequence (looked up): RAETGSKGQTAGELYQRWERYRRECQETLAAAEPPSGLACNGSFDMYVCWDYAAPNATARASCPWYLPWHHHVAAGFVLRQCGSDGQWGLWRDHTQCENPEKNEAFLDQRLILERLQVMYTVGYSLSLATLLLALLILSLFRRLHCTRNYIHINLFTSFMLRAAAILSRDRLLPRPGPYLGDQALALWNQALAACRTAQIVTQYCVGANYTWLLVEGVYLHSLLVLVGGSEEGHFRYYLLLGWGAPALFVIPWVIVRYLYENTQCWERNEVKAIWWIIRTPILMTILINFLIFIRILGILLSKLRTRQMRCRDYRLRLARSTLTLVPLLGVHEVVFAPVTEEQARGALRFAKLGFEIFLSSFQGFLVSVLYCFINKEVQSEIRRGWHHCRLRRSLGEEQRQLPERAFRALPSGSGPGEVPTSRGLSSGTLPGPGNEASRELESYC
Experiment: cell-based or functional assay
Starred links: 1 amine or outer side, 2 acyl side, 3 side chain; linkers in the order of their positions; H or OH if unused. Non-standard residues stand in square brackets, D forms with d. Groups on a side chain read outwards from the residue. No end group written: not given here. *: point of attachment. C20 diacid = O=C(O)CCCCCCCCCCCCCCCCCCC(=O)*; γGlu = O=C(O)[C@H](CCC(=O)[*:2])N[*:1]; αMeF = C[C@](N)(Cc1ccccc1)C(=O)O; AEEA = NCCOCCOCC(=O)O; Ac3c = NC1(C(=O)O)CC1; Aib = CC(C)(N)C(=O)O
Labelling: cAMP EC50, CHO cells stably overexpressing human GIP R reported below 0.02 nM becomes MET; at or above becomes NOT MET.

Please review the following examples before continuing.
| binder | group label |
| --- | --- |
| YXQGTXTSDYSIXLDKKAQXAFIEYLLESHPSSGAPPXS (Aib at 2; αMeF at 6; αMeL at 13; Lys 17 side chain AEEAc-AEEAc-γGlu-CO(CH2)18COOH; Aib at 20; Ac3c at 38; C-terminal amide (NH2)) [Compound 3] | NOT MET |
| YXQGTXTSDYSIXLDKKAQXAFIEFLLETXPSSGAPPXS (Aib at 2; αMeF at 6; αMeL at 13; Lys 17 side chain AEEAc-AEEAc-γGlu-CO(CH2)18COOH; Aib at 20; Aib at 30; Ac3c at 38; C-terminal amide (NH2)) [Compound 30] | MET |

Lab note: confirm whether the reported cAMP EC50, CHO cells stably overexpressing human GIP R for this binder is below 0.02 nM, equality not counting. binder: YXQGTXTSDYSIFLDKKAQXAFIEFLLESHPSSGAPPXS (Aib at 2; αMeF(2F) at 6; Lys 17 side chain AEEAc-AEEAc-γGlu-CO(CH2)18COOH; Aib at 20; Ac3c at 38; C-terminal amide (NH2)) [Compound 10]
NOT MET

Lab note: confirm whether the reported cAMP EC50, CHO cells stably overexpressing human GIP R for this binder is below 0.02 nM, equality not counting. binder: YXQGTXTSDYSILLDKKAQXAFIEFLLESHPSSXHPPXS (Aib at 2; αMeF at 6; Lys 17 side chain AEEAc-AEEAc-γGlu-CO(CH2)18COOH; Aib at 20; Aib at 34; Ac3c at 38; C-terminal amide (NH2)) [Compound 42]
NOT MET

Lab note: confirm whether the reported cAMP EC50, CHO cells stably overexpressing human GIP R for this binder is below 0.02 nM, equality not counting. binder: Y[Aib]QGT[αMeF]TSDYSIXLDKK([AEEA-AEEA-γGlu-C20 diacid])AQ[Aib]AFIEFLLES[Aib]PSSGAPP[Ac3c]S-NH2 (not fully specified (residue 13); printed as Y-Aib-QGT-αMeF-TSDYSI-αMeF-LDKK(AEEAc-AEEAc-γGlu-CO(CH2)18COOH)AQ-Aib-AFIEFLLES-Aib-PSSGAPP-Ac3c-S-NH2) [Compound 28]
MET
